- ASSAY_PROTOCOL: GST activity of purified recombinant protein toward fomesafen
- Format: biochemical
- PROTOCOL_CONDITIONS: thiol hGSH; recombinant enzyme; ±SE, n=2
# GST activity toward fomesafen, hGSH listing for each entry below
Respond numerically; units are pkat mg-1 and should not be typed.

MOLECULE	UNIT_NAME	ENDPOINT_RESULT
GST 3.1: Recombinant soybean Glutathione-S-transferase 3.1, SEQ ID No. 8 (protein, Glycine max) MAEQDKVILHGMWASPYAKRVELALNFKGIPYEYVEEDLRNKSDLLLKYNPVHKKVPVLVHNGKAIAESMVILEYIDETWKDGPKLLPSDSYKRAQARFWCHFIQDQLMESTFLVVKTDGEAQQKAIDHVYEKLKVLEDGMKTYLGEGNAIISGVENNFGILDIVFCALYGAYKAHEEVIGLKFIVPEKFPVLFSWLMAIAEVEAVKIATPPHEKTVGILQLFRLSALKSSSATE	pkat mg-1	484.6

# input Given GST 2.6: Recombinant soybean Glutathione-S-transferase 2.6, SEQ ID No. 7 (protein, Glycine max) MSSSQEEVTLLGVVGSPFLHRVQIALKLKGVEYKYLEDDLNNKSDLLLKYNPVYKMIPVLVHNEKPISESLVIVEYIDDTWKNNPILPSDPYQRALARFWAKFIDDKCVVPAWKSAFMTDEKEKEKAKEELFEALSFLENELKGKFFGGEEFGFVDIAAVLIPIIQEIAGLQLFTSEKFPKLSKWSQDFHNHPVVNEVMPPKDQLFAYFKARAQSFVAKRKN , state its recorded GST activity toward fomesafen, hGSH.
# output 350.5

# input Given GST 3.2: Recombinant soybean Glutathione-S-transferase 3.2, SEQ ID No. 9 (protein, Glycine max) MAEVKLHGFWYSPYTLRVVWTLKLKDIPYQNIEEDRYNKSLQLLEYNPVYKKTPVLVHNGKPLCESMLIVEYIDEIWAHNSLLPADPYERALARFWVKYADDDMFSAVIAFFLSNNDEEREKSIEKIWEHLRVVENQCFGDQKKFFGGDIINIMDIAFGSIFKILVVAEDILDAKVLEDEKFPHLHSWYNNFKDVAVIKENLPDHEKMVAFAKFIREKRLACT , state its recorded GST activity toward fomesafen, hGSH.
# output 201.6

Sourced from patent US7056715B1
